Reference source for all entries: ChEMBL document CHEMBL2086274

Target: Tyrosinase (Mus musculus) (UniProt P11344)
Sequence (whole entry): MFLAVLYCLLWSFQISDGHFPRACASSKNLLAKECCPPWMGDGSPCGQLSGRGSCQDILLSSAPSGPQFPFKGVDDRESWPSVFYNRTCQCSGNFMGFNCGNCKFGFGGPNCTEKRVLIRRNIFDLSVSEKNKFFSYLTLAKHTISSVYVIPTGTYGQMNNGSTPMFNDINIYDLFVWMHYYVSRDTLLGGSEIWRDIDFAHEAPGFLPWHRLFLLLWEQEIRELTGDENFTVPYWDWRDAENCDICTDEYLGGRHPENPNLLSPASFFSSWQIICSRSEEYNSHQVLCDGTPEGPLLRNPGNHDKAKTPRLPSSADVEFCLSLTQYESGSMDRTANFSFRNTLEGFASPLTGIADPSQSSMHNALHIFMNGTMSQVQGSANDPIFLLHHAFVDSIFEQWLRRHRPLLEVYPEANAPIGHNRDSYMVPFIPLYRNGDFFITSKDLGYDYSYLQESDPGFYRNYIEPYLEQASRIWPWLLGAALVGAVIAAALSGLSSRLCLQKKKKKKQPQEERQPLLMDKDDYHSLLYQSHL
Experiment: Inhibition of tyrosinase in mouse B16F10 cells assessed as reduction of melanin production at 20 ug/ml after 72 hrs
Type: cell-based
Conditions: B16-F10
Attribute measured: inhibition (%)
Numeric only. Scale: %

Here is how some molecules turned out for inhibition.
Structure smiles string	Readout number
Cn1c2ccccc2c2cc(/C=C/C(=O)c3cccc(NC(=O)c4ccco4)c3)ccc21	10.7
Cn1c2ccccc2c2cc(/C=C/C(=O)c3cccc(NC(=O)C4CC4)c3)ccc21	30
Cc1ccc(C(=O)Nc2cccc(C(=O)/C=C/c3ccc4c(c3)c3ccccc3n4C)c2)cc1	25.4
Cc1ccccc1C(=O)Nc1cccc(C(=O)/C=C/c2ccc3c(c2)c2ccccc2n3C)c1	8.1

Let's switch to this molecule now.
Req: # lookup: inhibition of Cn1c2ccccc2c2cc(/C=C/C(=O)c3cccc(N)c3)ccc21
Resp: 20.1
